experiment: changes in parasitized red cell lysis, either direction – P. falciparum Indochina, OD700, 3 h, PSAC antagonist project, primary screen (AID 1156); conditions: P. falciparum-infected erythrocytes, osmotic lysis, higher = more signal, called active from +8 up or from −8 down
Response field class: enum, chosen by comparing z-score against low: < -0.2; mid: ≥ -0.2 and < 1; high: ≥ 1

Sample answers from the record:
compound="C=CCC(OC(C)=O)[C@@H]1[C@@H](N(Cc2ccc(-c3ccccc3)cc2)C(=O)c2cccc3ccccc23)c2cc(OCCCO)ccc2N1C(=O)c1ccc2ccccc2n1 (some centres undefined)" classlabel=low
compound=CC(=O)NCCCC[C@@H]1NC(=O)[C@H]2C[C@@H](C(=O)NCCCCCN)[C@@H](c3cccc(OCCO)c3)N2C1=O classlabel=high
compound=[N-]=[N+]=NCc1ccccc1C[C@@]1(C(=O)NCCN2CCOCC2)N=C(c2ccc(OCCCO)cc2)O[C@@H]1c1ccccc1CN=[N+]=[N-] classlabel=high
compound=O=C1O[C@H](c2ccccc2)[C@H](c2ccccc2)N2[C@H]1[C@@H](C(=O)N1CCCCCCC1)[C@]1(C(=O)Nc3ccccc31)[C@H]2c1ccc(O)cc1 classlabel=low
compound=C=C(COC)C(=O)CC[C@H](OC(=O)c1ccccc1-c1ccccc1C(=O)O)c1ccc(OCCO)cc1 classlabel=high

API: the following record is the query input.
Just checking, what class would you give C[N+](C)(C)CCCCCCNC(=O)[C@H]1C[C@H]2C(=O)N3CCC[C@H]3C(=O)N2[C@H]1c1cccc(OCCO)c1 here? low
